# Tested on: spleen (SP)
# Test Method Notes: Whole organ transcriptome (GeneChip microarray) of spleen 6 h after adjuvant administration: sDEGs, hierarchical clustering
# Format: in vivo, C57BL/6 mice
# Particulars: i.d. administration, fold change >1.5, p<0.01, customized PA call=1, 6 h after adjuvant
Quick reference: Number of gene probes with statistically significant changes (sDEGs), SP, Up of the listed items.
Note: the reply should be a number with no unit written.

Molecule	Target Of Assay	Observed Value
Nc1nc2c(ncn2[C@@H]2O[C@@H]3COP(=O)(O)O[C@H]4[C@@H](O)[C@H](n5cnc6c(N)ncnc65)O[C@@H]4COP(=O)(O)O[C@@H]2[C@@H]3O)c(=O)[nH]1 [cGAMP, Cyclic [G(2′,5′)pA(3′,5′)p]]	spleen (SP)	680

## Task Report measured Number of gene probes with statistically significant changes (sDEGs), SP, Up; entry is `Nc1nc2c(ncn2[C@@H]2O[C@@H]3COP(=O)(O)O[C@H]4[C@@H](O)[C@H](n5cnc6c(=O)[nH]c(N)nc65)O[C@@H]4COP(=O)(O)O[C@H]3[C@H]2O)c(=O)[nH]1`
## Result 707

## Task Answer with the recorded Number of gene probes with statistically significant changes (sDEGs), SP, Up of `Cc1ccc2c(=O)c3cccc(CC(=O)O)c3oc2c1C` only.
## Result 121

## Task Name the recorded Number of gene probes with statistically significant changes (sDEGs), SP, Up of the item CC(O)COC[C@H]1O[C@@H]2O[C@H]3[C@H](O)[C@@H](O)[C@@H](O[C@H]4[C@H](O)[C@@H](O)[C@@H](O[C@H]5[C@H](O)[C@@H](O)[C@@H](O[C@H]6[C@H](O)[C@@H](O)[C@@H](O[C@H]7[C@H](O)[C@@H](O)[C@@H](O[C@H]8[C@H](O)[C@@H](O)[C@@H](O[C@H]1[C@H](O)[C@H]2O)O[C@@H]8COCC(C)O)O[C@@H]7COCC(C)O)O[C@@H]6COCC(C)O)O[C@@H]5COCC(C)O)O[C@@H]4COCC(C)O)O[C@@H]3COCC(C)O (stereo partly drawn) [bCD, Hydroxypropyl-beta-cyclodextrin] in your answer.
## Result 111

====

# Tested on: preferentially upregulated genes in LV, SP, LN
# Test Method Notes: Z-score-based differential gene expression analysis (adjuvant group- or adjuvant-associated genes, 40 module mapping, TargetMine annotation)
# Assay type: in vivo, C57BL/6 mice
# Particulars: ID, LV, sample x2
Listed next: entries and their corresponding Shisa5 1423986_a_at (Group G1, Modules 20).
Form: value (number only, do not type unit).

Check out these entries, answers already filled in.
Molecule	Observed Value
Nc1nc2c(ncn2[C@@H]2O[C@@H]3COP(=O)(O)O[C@H]4[C@@H](O)[C@H](n5cnc6c(N)ncnc65)O[C@@H]4COP(=O)(O)O[C@@H]2[C@@H]3O)c(=O)[nH]1 [cGAMP, Cyclic [G(2′,5′)pA(3′,5′)p]]	1.43
Cc1ccc2c(=O)c3cccc(CC(=O)O)c3oc2c1C [DMXAA, 5,6-dimethylxanthenone-4-acetic acid]	1.81
CCOCc1nc2c(N)nc3ccccc3c2n1CC(C)(C)O [R848]	2.32

Alright, here's another molecule for you.
## Task Note down Shisa5 1423986_a_at (Group G1, Modules 20) recorded for Nc1nc2c(ncn2[C@@H]2O[C@@H]3COP(=O)(O)O[C@H]4[C@@H](O)[C@H](n5cnc6c(=O)[nH]c(N)nc65)O[C@@H]4COP(=O)(O)O[C@H]3[C@H]2O)c(=O)[nH]1 [cdiGMP, Cyclic diguanylate monophosphate]
## Result 1.07

====

# Test system: preferentially upregulated genes in LV, SP, LN
# Test Method Notes: Z-score-based differential gene expression analysis (adjuvant group- or adjuvant-associated genes, 40 module mapping, TargetMine annotation)
# Format: in vivo, C57BL/6 mice
# Particulars: ID, LV, sample x1
Consider the following compounds and their measured Shisa5 1437503_a_at (Group G1, Modules 20) readings.
Lab note: record just the number, no unit beside it.

## Task Look up and report measured Shisa5 1437503_a_at (Group G1, Modules 20) for this entry: Nc1nc2c(ncn2[C@@H]2O[C@@H]3COP(=O)(O)O[C@H]4[C@@H](O)[C@H](n5cnc6c(N)ncnc65)O[C@@H]4COP(=O)(O)O[C@@H]2[C@@H]3O)c(=O)[nH]1 [cGAMP, Cyclic [G(2′,5′)pA(3′,5′)p]]
## Result 1.57

====

# System: preferentially upregulated genes in LV, SP, LN
# Test Method Notes: Z-score-based differential gene expression analysis (adjuvant group- or adjuvant-associated genes, 40 module mapping, TargetMine annotation)
# Assay type: in vivo, C57BL/6 mice
# Particulars: ID, LV, sample x2
# Tor1aip2 1435526_at (Group G1, Modules 20) per entry
Format: numeric value only, no unit, no commentary.

In the examples that follow, each entry is paired with its recorded Tor1aip2 1435526_at (Group G1, Modules 20).
Molecule	Observed Value
CCOCc1nc2c(N)nc3ccccc3c2n1CC(C)(C)O	2.18
Cc1ccc2c(=O)c3cccc(CC(=O)O)c3oc2c1C	1.48
Nc1nc2c(ncn2[C@@H]2O[C@@H]3COP(=O)(O)O[C@H]4[C@@H](O)[C@H](n5cnc6c(=O)[nH]c(N)nc65)O[C@@H]4COP(=O)(O)O[C@H]3[C@H]2O)c(=O)[nH]1 [cdiGMP, Cyclic diguanylate monophosphate]	0.83

Query molecule follows.
## Task Provide one value: measured Tor1aip2 1435526_at (Group G1, Modules 20) of Nc1nc2c(ncn2[C@@H]2O[C@@H]3COP(=O)(O)O[C@H]4[C@@H](O)[C@H](n5cnc6c(N)ncnc65)O[C@@H]4COP(=O)(O)O[C@@H]2[C@@H]3O)c(=O)[nH]1 [cGAMP, Cyclic [G(2′,5′)pA(3′,5′)p]]
## Result 2.28

====

Recorded Adar 1434268_at (Group G1, Modules 20) for the following compounds
# Test system: preferentially upregulated genes in LV, SP, LN
# Test Method Notes: Z-score-based differential gene expression analysis (adjuvant group- or adjuvant-associated genes, 40 module mapping, TargetMine annotation)
# Assay type: in vivo, C57BL/6 mice
# Particulars: ID, LV, sample x3
Write the value as a bare number.

Compound	Observed Value
Nc1nc2c(ncn2[C@@H]2O[C@@H]3COP(=O)(O)O[C@H]4[C@@H](O)[C@H](n5cnc6c(=O)[nH]c(N)nc65)O[C@@H]4COP(=O)(O)O[C@H]3[C@H]2O)c(=O)[nH]1 [cdiGMP, Cyclic diguanylate monophosphate]	2.95

## Task Annotate the compound Nc1nc2c(ncn2[C@@H]2O[C@@H]3COP(=O)(O)O[C@H]4[C@@H](O)[C@H](n5cnc6c(N)ncnc65)O[C@@H]4COP(=O)(O)O[C@@H]2[C@@H]3O)c(=O)[nH]1 [cGAMP, Cyclic [G(2′,5′)pA(3′,5′)p]] with its measured Adar 1434268_at (Group G1, Modules 20).
## Result 1.8

## Task In one line, give reported Adar 1434268_at (Group G1, Modules 20) of the entry `CCOCc1nc2c(N)nc3ccccc3c2n1CC(C)(C)O` .
## Result 1

## Task Could you please provide reported Adar 1434268_at (Group G1, Modules 20) for `Cc1ccc2c(=O)c3cccc(CC(=O)O)c3oc2c1C` ? Thanks!
## Result 0.92

====

The following molecules are listed with their measured GO annotation: positive regulation of defense response (Term: defense response) values.
# Test system: adjuvant-associated biological themes in LV, SP, LN
# Particulars: LV, ID
# Procedure: A defined sets of genes were selected according to specified criteria (e.g., FC, PA-call, threshold values). […] Whole organ transcriptome data for each organ from each mouse were analyzed as follows to obtain biological themes for individual samples from each adjuvant-administered group of three mice. […] Next, the biological themes called by all the individual samples in the group were scored as follows. […]

## Task Give adjuvant-associated biological themes in LV, SP, LN GO annotation: positive regulation of defense response (Term: defense response) for the following molecule: Nc1nc2c(ncn2[C@@H]2O[C@@H]3COP(=O)(O)O[C@H]4[C@@H](O)[C@H](n5cnc6c(N)ncnc65)O[C@@H]4COP(=O)(O)O[C@@H]2[C@@H]3O)c(=O)[nH]1 [cGAMP, Cyclic [G(2′,5′)pA(3′,5′)p]]
## Result 24.7

====

Quick reference for Irgm1 1418825_at (Group G1, Modules 20) among some compounds
# Tested on: preferentially upregulated genes in LV, SP, LN
# Test Method Notes: Z-score-based differential gene expression analysis (adjuvant group- or adjuvant-associated genes, 40 module mapping, TargetMine annotation)
# Format: in vivo, C57BL/6 mice
# Particulars: ID, LV, sample x3

Guide cases for Irgm1 1418825_at (Group G1, Modules 20), answers given:
Compound	Target Of Assay	Irgm1 1418825_at (Group G1, Modules 20)
Cc1ccc2c(=O)c3cccc(CC(=O)O)c3oc2c1C	preferentially upregulated genes in LV, SP, LN	0.79
CCOCc1nc2c(N)nc3ccccc3c2n1CC(C)(C)O	preferentially upregulated genes in LV, SP, LN	2.02
Nc1nc2c(ncn2[C@@H]2O[C@@H]3COP(=O)(O)O[C@H]4[C@@H](O)[C@H](n5cnc6c(N)ncnc65)O[C@@H]4COP(=O)(O)O[C@@H]2[C@@H]3O)c(=O)[nH]1 [cGAMP, Cyclic [G(2′,5′)pA(3′,5′)p]]	preferentially upregulated genes in LV, SP, LN	2.14

Here's the next entry for you.
## Task Tell me its Irgm1 1418825_at (Group G1, Modules 20) given Nc1nc2c(ncn2[C@@H]2O[C@@H]3COP(=O)(O)O[C@H]4[C@@H](O)[C@H](n5cnc6c(=O)[nH]c(N)nc65)O[C@@H]4COP(=O)(O)O[C@H]3[C@H]2O)c(=O)[nH]1 [cdiGMP, Cyclic diguanylate monophosphate] as the entry.
## Result 1.81
